Experiment: folding stability dG unfold from trypsin proteolysis; higher = more stable
measuredProperty: folding stability dG unfold (kcal/mol)
A number alone suffices; assume kcal/mol.

{"columns": ["seqString", "folding stability dG unfold, kcal/mol"],
 "data": [
  ["SAGGKVVKTKEEAEKLVKEGKAEVVSVKKVKVPVNGKEKEVEVLEVKIKDKKTKKEKTIVLTKEQLKSAGGS [r16_271_TrROS_Hall]", -0.319],
  ["SAGGSAPPPNTIPIRVKIEDKNGKWETITFPVKSGDDAKDFLNDNFPNVKVEYDPGAGWVTIEVPKSAGGSA [r15_313_TrROS]", -0.868],
  ["SEETLRILIRDPATGELREIEVRAGETVTVTFPDGSTVTLRITVVAAPPPPPKTVTLDPNETVEEGETVLSA [r9_467_TrROS_Hall]", 2.24]
]}

State the recorded folding stability dG unfold for this entry: SAMTIVLTLDEIAELLGLEKGESVEELRERIRELIRRLEEEGYRVTSITIEEVDGELVITVEIEPPPPESAG [r14_158_TrROS_Hall]
3.38

----------
Experiment: folding stability dG unfold from trypsin proteolysis; higher = more stable
measuredProperty: folding stability dG unfold (kcal/mol)
A number alone suffices; assume kcal/mol.

State the recorded folding stability dG unfold for this entry: SAGGSAGGSAGKIKIKNEDGSEYEVKKIEITIKNENGEKKKIKLEIELPKAKEVKIEKKKSAGGSAGGSAGG [r11_804_TrROS_Hall]
-1.2

Could you do the same for SAGGSAGGSAGMRVVEVYRLPDGSYRIRFPDGTEVEVSPEELEEVARRLGADEVRVRPELSAGGSAGGSAGG [r11_312_JUSTAS] , please?
2.4

Could you do the same for SAGGSAMKIKPGETVTIKVKNKETGEWFEAKIVKVDEEKGEIEIEVEVNGKKYTFTIPAEDIEIVESAGGSA [r15_381_TrROS_Hall] , please?
1.87

Could you do the same for SAGGSAGGPKEKKWYVMVHITWRDDGKERPRHFMFKSPEQVIEALEEQLPPDNIEIDVAVFPYKSAGGSAGG [r6_114_TrROS] , please?
1.63

Could you do the same for SAMTKEEAKENGHIYIMVKIEVTWPNGGKREFPIFFPFPSLDEAKEQIRSFFRRMNFKVKIDDISIFPVSAG [r14_854_TrROS] , please?
2.98

Could you do the same for SAGGMFKVYEVTGKDAKVTIVEAPLPDGGKLVVVEVWEGGKPVKPFLVPVAELEEIAKAIGIKPEELKSAGG [r13_108_TrMRF] , please?
1.05

Could you do the same for SAGGSAGGSAGGSVAYVAPDGDKLIVRVVRPDGSVEEKEFDSLEDLKTLPDDVPVAFLVSAGGSAGGSAGGS [r4_447_TrMRF] , please?
0.86

----------
Test: folding stability dG unfold from chymotrypsin proteolysis; higher = more stable
measuredProperty: folding stability dG unfold (kcal/mol)
A number alone suffices; assume kcal/mol.

Solved entries:
{"columns": ["seqString", "readingUnit", "folding stability dG unfold"],
 "data": [
  ["SMTIELTVPSPEELLAALKALADAGIKGAKIRITVTNPDGEEQEIEVDSIEDLEALIESGPVTVRVEIEPSA [r9_589_TrROS_Hall]", "kcal/mol", 2.5],
  ["SAGGSMEVKVEVVKDEETKEYYVKVEIRDPKTKKTITLEYKVKEEDKEEALKKAKELAEELAKKGISAGGSA [r2_221_TrROS_Hall]", "kcal/mol", 3.64],
  ["SAGGSAGGSAGGTLEFTFPGEGNLLAKVRIDLGESGNVRIDVYIYDGDTLLAKATFTLNLSAGGSAGGSAGG [r7_79_TrMRF]", "kcal/mol", 5.46],
  ["SAGGSAGGSAKKPKKFKITKISTVKNKNGKTYYKLVIEDEKTKKKYVFVFPKNKEEILKALSAGGSAGGSAG [r3_57_TrROS_Hall]", "kcal/mol", 2.53]
]}

State the recorded folding stability dG unfold for this entry: SAGGSAGGSGMMFELAFREIKYSPNDSVTIKAELPDGSSITIPTKKGEIKFKLPENGYVKVLGSAGGSAGGS [r12_746_JUSTAS]
-0.514

Could you do the same for SAGGSAMTVTYTPSTKTITITDPSNGKPVKVTVTEEKPVVPGKNVYELTVTVPDTGGEKKILITLPSAGGSA [r15_209_JUSTAS] , please?
-0.192

Could you do the same for SAGNRYEVNLTYMYPPDDPGLIEKIKKILRKLGWEIEKVKEQRMPDNKMRMVTHKIRIPGLPPEALKAFSAG [r14_956_TrROS] , please?
1.27

Could you do the same for SAGFQIERKRDPDGKYEVEIKFPHPDGHPMRVKIPINPKEGKIKIDEIESTNPGHKQRMEELARWFLKASAG [r5_266_TrROS] , please?
-0.526
